Molecular target: UniProtKB P14842
Sequence (P14842 whole entry): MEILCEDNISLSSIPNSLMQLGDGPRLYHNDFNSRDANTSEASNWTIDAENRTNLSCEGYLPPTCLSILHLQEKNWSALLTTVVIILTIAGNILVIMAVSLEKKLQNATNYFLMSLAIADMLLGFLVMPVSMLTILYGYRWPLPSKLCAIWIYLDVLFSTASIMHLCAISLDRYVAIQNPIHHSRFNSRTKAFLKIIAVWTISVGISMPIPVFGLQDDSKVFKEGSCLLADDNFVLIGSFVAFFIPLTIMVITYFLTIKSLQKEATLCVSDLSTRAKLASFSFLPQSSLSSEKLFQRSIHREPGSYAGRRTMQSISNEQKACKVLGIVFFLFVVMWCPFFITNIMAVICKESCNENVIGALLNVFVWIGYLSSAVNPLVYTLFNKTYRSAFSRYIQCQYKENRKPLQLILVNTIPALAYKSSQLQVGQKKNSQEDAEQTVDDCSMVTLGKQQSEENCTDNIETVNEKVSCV
Experiment: Binding test on [3H] ketanserin (serotonin 2 receptor)
Conditions: [3H] ketanserin 0.3 nM, receptor fraction of rat cerebral cortex; read-out: 5HT2
Structures can show the parent of a compound that is named as a salt.
Rule: Ki below 20 nM gives Y, anything at or above gives N.

CCCS(=O)(=O)Nc1ccc2c(c1)N(C1CCN(CCc3ccc(F)cc3)CC1)CC2	Y
Nc1ccc(CCN2CCC(N3CCc4ccccc43)CC2)cc1	Y
COc1ccc2c(c1)C(N1CCN(CCc3ccc(F)cc3)CC1)CC2 (stereo not drawn) [Example 250, Hydrochloride]	Y
CCN1CCC(N2CCc3ccc(NS(=O)(=O)c4ccc(F)cc4)cc32)CC1	N
OCc1ccc(CCN2CCC(N3CCc4ccccc43)CC2)cn1	Y
CC(C)C(=O)NCc1ccc2c(c1)N(C1CCN(CCc3ccc(F)cc3)CC1)CC2	Y
CC(C)(C)NC(=O)Cc1ccc2c(c1)N(C1CCN(CCc3ccc(F)cc3)CC1)CC2	Y
NCc1ccc(CCN2CCC(N3CCc4ccccc43)CC2)cc1	N
CCN1CCC(N2CC(c3ccc(F)cc3)c3ccccc32)CC1 (stereo not drawn)	N
OC(c1cncnc1)c1ccc2c(c1)N(C1CCN(CCc3ccc(F)cc3)CC1)CC2 (stereo not drawn)	Y

Just wondering, is Ki of CCNc1ccc2c(c1)N(C1CCN(CCc3ccc(F)cc3)CC1)CC2 below 20 nM?
N

Lookup CN1CCC(Cc2ccc3c(c2)N(C2CCN(CCc4ccc(F)cc4)CC2)CC3)CC1
Y

Also need Fc1ccc(CCN2CCC(N3CCc4ccc(Cl)nc43)CC2)cc1 , thanks.
Y

Now the compound Fc1ccc(CCN2CCC(N3CCc4ccc(Cn5cncn5)cc43)CC2)cc1
Y

How about this compound: CCNc1ccc(CCN2CCC(N3CCc4ccccc43)CC2)cc1
N

Then what about the compound COc1ncccc1Cc1ccc2c(c1)N(C1CCN(CCc3ccc(F)cc3)CC1)CC2 ?
Y

Same lookup for O=C(NCc1ccc2ccn(C3CCN(CCc4ccc(F)cc4)CC3)c2c1)C1CC1 , please.
Y

Also check CN(C)C(=O)Cc1ccc2ccn(C3CCN(CCc4ccc(F)cc4)CC3)c2c1.O=C(O)C(=O)O [Example 301, Oxalate]
N

---

Target: α1 adrenalin receptor
Assay: Binding test on [3H] prazosin (α1 adrenalin receptor)
Design: species or system rat
Conditions: [3H] prazosin about 0.2 nM, receptor fraction of rat cerebral cortex
This section presents compounds with their documented Ki values.
Field: numeric (nM). Do not append units.

Previously resolved entries follow.
CNCc1ccc2ccn(C3CCN(CCc4ccc(F)cc4)CC3)c2c1 [Example 361]	77.4
CC(=O)NCc1ccc2ccn(C3CCN(CCc4cccnc4)CC3)c2c1 [Example 386]	26.2
O=C(NCc1ccc2ccn(C3CCN(CCc4ccc(F)cc4)CC3)c2c1)C(F)F [Example 365]	61.6
O=C(NCc1ccc2ccn(C3CCN(CCc4ccc(F)cc4)CC3)c2c1)C1CC1 [Example 363]	106
CN(C)C(=O)Cc1ccc2ccn(C3CCN(CCc4ccc(F)cc4)CC3)c2c1.O=C(O)C(=O)O [Example 301, Oxalate]	66.9

Value lookup for Ki; key = CC(C)C(=O)NCc1ccc2ccn(C3CCN(CCc4ccc(F)cc4)CC3)c2c1 [Example 354]
90.5

Again, but for Fc1ccc(CCN2CCC(n3ccc4cc5scnc5cc43)CC2)cc1 [Example 334]
212

Would you kindly repeat that for CC1CN(C2CCN(CCc3ccc(F)cc3)CC2)c2ccccc21 (stereo not drawn) [Example 216] ?
81.6

Please answer likewise for CNS(=O)(=O)Cc1ccc2ccn(C3CCN(CCc4ccc(F)cc4)CC3)c2c1 [Example 338]
21.3

Next: O=C(Cc1ccc2ccn(C3CCN(CCc4ccc(F)cc4)CC3)c2c1)NCC1OCCO1 [Example 347]
44.3

Note, next up: Cc1nc2sccn2c(=O)c1CCN1CCC(N2CCc3ccccc32)CC1 [Co. No. 5 given in WO96/23784, reference compound]
16.8

Moving on to the next compound: O=C(CCO)NCc1ccc2ccn(C3CCN(CCc4ccc(F)cc4)CC3)c2c1 [Example 369]
121
